Test System: ovine COX-1 (oCOX-1) (Ovis aries, UniProt P05979)
Construct: purchased Cayman Chemicals (Ann Arbor, Mich.)
Sequence (P05979 25-600): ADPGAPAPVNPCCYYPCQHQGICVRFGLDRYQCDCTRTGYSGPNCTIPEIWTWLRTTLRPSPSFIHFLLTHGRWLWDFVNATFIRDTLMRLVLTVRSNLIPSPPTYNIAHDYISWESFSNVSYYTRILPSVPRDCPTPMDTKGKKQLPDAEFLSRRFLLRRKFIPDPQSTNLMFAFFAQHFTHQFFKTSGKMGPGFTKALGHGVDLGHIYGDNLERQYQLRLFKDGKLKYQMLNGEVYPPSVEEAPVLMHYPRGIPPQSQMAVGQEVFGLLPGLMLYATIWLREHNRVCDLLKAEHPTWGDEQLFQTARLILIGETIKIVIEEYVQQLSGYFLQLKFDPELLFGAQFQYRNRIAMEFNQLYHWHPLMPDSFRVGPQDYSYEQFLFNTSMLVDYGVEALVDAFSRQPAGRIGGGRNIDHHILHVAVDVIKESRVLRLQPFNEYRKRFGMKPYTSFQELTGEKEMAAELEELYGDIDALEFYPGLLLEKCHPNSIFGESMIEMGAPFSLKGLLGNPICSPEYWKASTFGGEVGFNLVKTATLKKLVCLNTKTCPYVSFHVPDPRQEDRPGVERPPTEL
Assay Text: LCMS-based COX-1 enzymatic inhibition assay (PGE2 quantification)
Type: biochemical
Condition Notes: 10 minutes; pge2 area (counts); head of this section not shown, inferred
As shown below, each of these compounds has a reported COX1 10 minutes pge2 area (counts) Avg. LLE value.
Assay Metric: COX1 10 minutes pge2 area (counts) Avg. LLE

INSERT INTO assay_data (compound, observed_result) VALUES
  ('COc1ncc(NCc2cccs2)nc1-c1ccc(S(C)(=O)=O)nc1 [Compound 60]', 2.694),
  ('CS(=O)(=O)c1ccc(-c2ccc3ccn(Cc4ccco4)c3n2)cc1 [Compound 61]', 0.214),
  ('CS(=O)(=O)c1ccc(-c2cnc3ccn(Cc4ccco4)c3n2)cc1 [Compound 82]', 1.853),
  ('CS(=O)(=O)c1ccc(-c2cnc3cnn(Cc4cccs4)c3n2)cc1 [Compound 94]', 2.532),
  ('Cc1coc(CNc2cccc(-c3ccc(S(C)(=O)=O)cc3)n2)c1 [Compound 85]', 1.134),
  ('CSc1ccc(-c2cncc(OCc3cccs3)n2)cc1 [Compound 253]', 0.8637),
  ('COc1ccc(NCc2cccs2)nc1-c1ccc(S(C)(=O)=O)nc1 [Compound 88]', 2.306),
  ('CS(=O)(=O)c1ccc(-c2cncc(NCc3ccccc3)n2)cc1 [Compound 93]', 2.104),
  ('CS(=O)(=O)c1ccc(-c2cncc(/C=C\c3cccs3)n2)cc1 [Compound 65]', 1.612),
  ('CS(=O)(=O)c1ccc(-c2cc3ccoc3c(NCc3cccs3)n2)cc1 [Compound 67]', 0.343),
  ('CS(=O)(=O)c1ccc(-c2ccc3cnn(Cc4cccs4)c3n2)cc1 [Compound 63]', 2.128),
  ('CS(=O)(=O)c1ccc(-c2cccc(NCc3ccns3)n2)cc1 [Compound 87]', 1.899),
  ('Cn1cccc1CNc1cccc(-c2ccc(S(C)(=O)=O)cc2)n1 [Compound 77]', 1.289);

---

Test System: human recombinant COX2 (hCOX2)
Assay Text: LCMS-based COX2 enzymatic inhibition assay (PGE2 quantification)
Format: biochemical
Set-up: COX2 2 minutes pge2/pge2d4 area ratio Avg; other: 2 minutes; readout pge2/pge2d4 area ratio; average; COX2 2 minutes pge2/pge2d4 area ratio Avg; LLE; average LLE; COX2 2 minutes pge2 area (counts) Avg; readout pge2 area (counts); other: 2 min; "ovine COX2 (oCOX2), human recombinant COX2 (hCOX2)"
Condition Notes: 2 minutes; readout pge2 area (counts); average LLE
Assay Metric: COX2 2 minutes pge2 area (counts) Avg. LLE

INSERT INTO assay_data (compound, test_system, observed_result) VALUES
  ('CS(=O)(=O)c1ccc(-c2ccc3ccn(-c4ccccc4)c3n2)cc1', 'human recombinant COX2 (hCOX2)', 2.132),
  ('CS(=O)(=O)c1ccc(-c2cncc(OCc3ccc(Cl)o3)n2)cc1', 'human recombinant COX2 (hCOX2)', 2.889),
  ('COc1ncc(NCc2ncco2)nc1-c1ccc(S(C)(=O)=O)cc1', 'human recombinant COX2 (hCOX2)', 4.092),
  ('CS(=O)(=O)c1ccc(-c2cccc(NCc3ncco3)n2)cc1', 'human recombinant COX2 (hCOX2)', 3.075),
  ('CS(=O)(=O)c1ccc(-c2cccc(NCc3ccc[nH]3)n2)cc1', 'human recombinant COX2 (hCOX2)', 4.74),
  ('CS(=O)(=O)c1ccc(-c2cccc(OCc3ccc(F)s3)n2)cc1', 'human recombinant COX2 (hCOX2)', 3.685),
  ('CS(=O)(=O)c1ccc(-c2nncc(NCc3cccs3)n2)cc1', 'human recombinant COX2 (hCOX2)', 4.345),
  ('CS(=O)(=O)c1ccc(-c2cncc(NCc3cccs3)c2)cc1', 'human recombinant COX2 (hCOX2)', 4.109),
  ('COc1ccc(NCc2ccco2)nc1-c1ccc(S(C)(=O)=O)cc1', 'human recombinant COX2 (hCOX2)', 4.033),
  ('COc1ccc(NCc2ccoc2)nc1-c1ccc(S(C)(=O)=O)cc1', 'human recombinant COX2 (hCOX2)', 4.505),
  ('CS(=O)(=O)c1ccc(-c2cc(NCc3cccs3)cnn2)cc1', 'human recombinant COX2 (hCOX2)', 3.69),
  ('Cc1csc(COc2cncc(-c3ccc(S(C)(=O)=O)cc3)n2)c1', 'human recombinant COX2 (hCOX2)', 5.349),
  ('CS(=O)(=O)c1ccc(-c2cccc(OCc3ccc(Cl)s3)n2)cc1', 'human recombinant COX2 (hCOX2)', 2.834),
  ('CS(=O)(=O)c1ccc(-c2cccc(NCc3nccs3)n2)cc1', 'human recombinant COX2 (hCOX2)', 3.918),
  ('COc1ncc(NCc2cnco2)nc1-c1ccc(S(C)(=O)=O)cc1', 'human recombinant COX2 (hCOX2)', 4.493),
  ('CS(=O)(=O)c1ccc(-c2cncc(OCc3cccs3)n2)cc1', 'human recombinant COX2 (hCOX2)', 5.681),
  ('CS(=O)(=O)c1ccc(-n2ccc3ccc(NCc4cccs4)nc32)cc1', 'human recombinant COX2 (hCOX2)', 3.132),
  ('CS(=O)(=O)c1ccc(-c2cccc(C3CC3c3ccoc3)n2)cc1 (single isomer, unassigned) [Compound 115]', 'human recombinant COX2 (hCOX2)', 2.982),
  ('CS(=O)(=O)c1ccc(-c2cnc(C(=O)O)c(NCc3cccs3)n2)cc1', 'human recombinant COX2 (hCOX2)', 4.034),
  ('CS(=O)(=O)c1ccc(-c2cncc(OCc3nccs3)n2)cc1', 'human recombinant COX2 (hCOX2)', 4.9085),
  ('CS(=O)(=O)c1ccc(-c2cccc(OCc3ccc(F)cc3)n2)cc1', 'human recombinant COX2 (hCOX2)', 3.477),
  ('Cc1ccoc1CNc1cccc(-c2ccc(S(C)(=O)=O)cc2)n1', 'human recombinant COX2 (hCOX2)', 4.0886),
  ('CS(=O)(=O)c1ccc(-c2ccc(F)c(OCc3cccs3)n2)cc1', 'human recombinant COX2 (hCOX2)', 3.805),
  ('CS(=O)(=O)c1ccc(-c2cncc(NCc3cccs3)n2)cc1', 'human recombinant COX2 (hCOX2)', 5.168),
  ('COc1ncc(NCc2ccno2)nc1-c1ccc(S(C)(=O)=O)cc1', 'human recombinant COX2 (hCOX2)', 5.655),
  ('COc1ncc(NCc2cccnc2)nc1-c1ccc(S(C)(=O)=O)cc1', 'human recombinant COX2 (hCOX2)', 5.249),
  ('COc1cnc(-c2ccc(S(C)(=O)=O)cc2)nc1OCc1cccs1', 'human recombinant COX2 (hCOX2)', 3.5904),
  ('CS(=O)(=O)c1ccc(-c2nc(NCc3cccs3)cnc2C#N)cc1', 'human recombinant COX2 (hCOX2)', 4.751),
  ('CS(=O)(=O)c1ccc(-c2cncc(NCc3cccs3)n2)c(O)c1', 'human recombinant COX2 (hCOX2)', 4.936),
  ('CS(=O)(=O)c1ccc(-n2ccc3cnc(NCc4cccs4)nc32)cc1', 'human recombinant COX2 (hCOX2)', 3.382),
  ('C[C@@H](Oc1cccc(-c2ccc(S(C)(=O)=O)cc2)n1)c1cccs1 (single isomer, unassigned)', 'human recombinant COX2 (hCOX2)', 1.483),
  ('CS(=O)(=O)c1ccc(-c2nc(NCc3ccco3)ccc2F)cc1', 'human recombinant COX2 (hCOX2)', 3.132),
  ('CS(=O)(=O)c1ccc(-c2cnc3ncn(Cc4cccs4)c3n2)cc1', 'human recombinant COX2 (hCOX2)', 2.964),
  ('CC(C)CN(C)c1cncc(-c2ccc(S(C)(=O)=O)cc2)n1', 'human recombinant COX2 (hCOX2)', 3.739),
  ('CS(=O)(=O)c1ccc(-c2cncc(NCc3cncs3)n2)cc1', 'human recombinant COX2 (hCOX2)', 4.612),
  ('CS(=O)(=O)c1ccc(-c2cccc(/C=C\c3ccoc3)n2)cc1', 'human recombinant COX2 (hCOX2)', 4.214);

---

Here the recorded log10(IC50) is given for each entry.
Test System: ovine COX-1 (oCOX-1) (Ovis aries, UniProt P05979)
Construct: purchased Cayman Chemicals (Ann Arbor, Mich.)
Assay Text: LCMS-based COX-1 enzymatic inhibition assay (PGE2 quantification)
Type: biochemical
Condition Notes: 10 minutes; pge2 area (counts); head of this section not shown, inferred; read-out: COX1 10 minutes pge2 area (counts) Avg. IC50
Assay Metric: log10(IC50) (log10 of the value in µM)

INSERT INTO measurements (compound, assay_metric, observed_result) VALUES
  ('CS(=O)(=O)c1ccc(-c2cnc3ccn(Cc4cccs4)c3n2)cc1', 'log10(IC50)', -0.47),
  ('C[S+]([O-])c1ccc(-c2cncc(NCc3cccs3)n2)cc1 (stereo not drawn)', 'log10(IC50)', 1.70),
  ('Cn1cccc1CNc1cccc(-c2ccc(S(C)(=O)=O)cc2)n1', 'log10(IC50)', 1.61),
  ('CS(=O)(=O)c1ccc(-n2ccc3ccc(Nc4ccccc4)nc32)cc1', 'log10(IC50)', 1.48),
  ('CS(=O)(=O)c1ccc(-c2cc3ccoc3c(NCc3cccs3)n2)cc1', 'log10(IC50)', 1.33),
  ('CS(=O)(=O)c1ccc(-c2ccc3cnn(Cc4cccs4)c3n2)cc1', 'log10(IC50)', 0.26),
  ('COc1ccc(NCc2cccs2)nc1-c1ccc(S(C)(=O)=O)nc1', 'log10(IC50)', 1.20),
  ('CS(=O)(=O)c1ccc(-c2cncc(NCc3cccs3)n2)cc1', 'log10(IC50)', 1.03),
  ('CS(=O)(=O)c1ccc(-c2cncc(/C=C\c3cccs3)n2)cc1', 'log10(IC50)', 1.58);
